details: in sec-butanol, 323.15 K
outcome-measure: solubility (mole fraction)
Give bare numbers.

The molecule identified as C[C@H](N)C(=O)O registered its solubility (mole fraction) at 0.000734

###

conditions: in n-propanol, 293.15 K
outcome-measure: solubility (mole fraction)
Numbers only.

Record C[C@H](N)C(=O)O , field solubility (mole fraction): 0.000215

###

conditions: in isobutanol, 323.15 K
outcome-measure: solubility (mole fraction)
Answers are plain numbers.

Recorded result, C[C@H](N)C(=O)O , solubility (mole fraction): 0.000361

###

settings: in ethyl acetate, 293.15 K
outcome-measure: solubility (mole fraction)
One number for each entry.

GET /value?item= C[C@H](N)C(=O)O &field=solubility (mole fraction) returns 0.00014

###

details: in isopropanol, 293.15 K
outcome-measure: solubility (mole fraction)
Give bare numbers.

Lab note: C[C@H](N)C(=O)O gave solubility (mole fraction) of 0.000144

###

settings: in n-propanol, 303.15 K
outcome-measure: solubility (mole fraction)
Give bare numbers.

# solubility (mole fraction) of C[C@H](N)C(=O)O = 0.000261

###

conditions: in n-pentanol, 313.15 K
outcome-measure: solubility (mole fraction)

Reported solubility (mole fraction) for C[C@H](N)C(=O)O was 0.000382

###

conditions: in water, 283.15 K
outcome-measure: solubility (mole fraction)
Give bare numbers.

// C[C@H](N)C(=O)O : solubility (mole fraction) value = 0.0279

###

conditions: in n-propanol, 313.15 K
outcome-measure: solubility (mole fraction)
Numbers only.

Sure, the documented solubility (mole fraction) for C[C@H](N)C(=O)O is 0.000313

###

conditions: in ethanol, 293.15 K
outcome-measure: solubility (mole fraction)
Give bare numbers.

The compound listed as C[C@H](N)C(=O)O shows solubility (mole fraction) equal to 0.000226

###

conditions: in acetone, 303.15 K
outcome-measure: solubility (mole fraction)
Numbers only.

Form: molecule = C[C@H](N)C(=O)O ; solubility (mole fraction) = 0.000138

###

conditions: in methanol, 313.15 K
outcome-measure: solubility (mole fraction)
Answers are plain numbers.

solubility (mole fraction) measured on C[C@H](N)C(=O)O = 0.000531
